# Tested on: anti-Aβ antibodies in sera from vaccinated baboons
# assay.procedure: Epitope mapping, 10-mer peptide-based ELISA with sera from vaccinated baboons
# run.parameters: peptide as plate coating, 84 weeks post immunization
Property: ELISA Titer titers (Log10); scope: individual substances

[
  {
    "substance": "13 (EVKMDAEFRH) [Peptide 13]",
    "ELISA Titer titers (Log10)": 0.16
  },
  {
    "substance": "9 (EEISEVKMDA) [Peptide 9]",
    "ELISA Titer titers (Log10)": 0.21
  },
  {
    "substance": "21 (HDSGYEVHHQ) [Peptide 21]",
    "ELISA Titer titers (Log10)": 0.18
  },
  {
    "substance": "18 (EFRHDSGYEV) [Peptide 18]",
    "ELISA Titer titers (Log10)": 0.18
  },
  {
    "substance": "20 (RHDSGYEVHH) [Peptide 20]",
    "ELISA Titer titers (Log10)": 0.27
  }
]
